- targetOrSystem: T1, hIL-4Rα on cells (human, UniProt P24394 26-825)
- T1 sequence: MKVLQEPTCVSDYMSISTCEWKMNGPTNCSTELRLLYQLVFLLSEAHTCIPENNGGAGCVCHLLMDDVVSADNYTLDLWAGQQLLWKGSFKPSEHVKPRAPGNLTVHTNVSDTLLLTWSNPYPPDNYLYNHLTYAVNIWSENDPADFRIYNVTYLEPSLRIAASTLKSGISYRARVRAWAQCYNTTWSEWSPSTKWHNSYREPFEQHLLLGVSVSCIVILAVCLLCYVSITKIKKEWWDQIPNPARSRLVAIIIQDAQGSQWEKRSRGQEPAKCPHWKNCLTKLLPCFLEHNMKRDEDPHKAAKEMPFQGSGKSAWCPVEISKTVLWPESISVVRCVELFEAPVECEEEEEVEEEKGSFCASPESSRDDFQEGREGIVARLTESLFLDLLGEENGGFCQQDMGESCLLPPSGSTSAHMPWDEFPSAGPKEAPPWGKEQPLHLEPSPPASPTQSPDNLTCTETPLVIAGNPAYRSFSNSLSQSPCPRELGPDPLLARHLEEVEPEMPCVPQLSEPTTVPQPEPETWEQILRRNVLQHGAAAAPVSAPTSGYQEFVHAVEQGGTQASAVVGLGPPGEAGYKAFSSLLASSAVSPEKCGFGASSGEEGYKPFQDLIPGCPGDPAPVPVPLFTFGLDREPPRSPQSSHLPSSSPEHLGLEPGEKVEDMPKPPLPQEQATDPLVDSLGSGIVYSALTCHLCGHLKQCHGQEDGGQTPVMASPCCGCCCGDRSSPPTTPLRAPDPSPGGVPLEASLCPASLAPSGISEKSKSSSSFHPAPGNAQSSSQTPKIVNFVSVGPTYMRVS
- procedureText: cell-based or functional assay
// reported Relative Inhibition of IL-4 induced pSTAT6 IC50 per item

Construct 10 (mAb419) (antibody, IgG4, V domains shown, VH/VL only) VH: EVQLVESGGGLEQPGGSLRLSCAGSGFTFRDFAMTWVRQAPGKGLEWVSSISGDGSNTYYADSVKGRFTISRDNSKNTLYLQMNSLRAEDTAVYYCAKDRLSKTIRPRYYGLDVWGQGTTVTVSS VL: DIVMTQSPLSLPVTPGEPASISCRSSQSLLYSIGYNYVDWYLQKSGQSPQLLIYLGNKRASGVPDRFSGSGSGTDFTLKISRVEAEDVGFYYCMQALGSPYTFGQGTKLEIK ... 0.599 relative to dupilumab

Problem: Which Relative Inhibition of IL-4 induced pSTAT6 IC50 value is on record for Construct 36 (mAb469) (antibody, IgG4, V domains shown, VH/VL only) VH: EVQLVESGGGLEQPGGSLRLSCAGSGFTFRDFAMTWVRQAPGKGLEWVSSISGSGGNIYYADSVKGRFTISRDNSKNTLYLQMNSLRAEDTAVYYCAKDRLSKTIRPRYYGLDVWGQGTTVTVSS VL: DIVMTQSPLSLPVTPGEPASISCRSSQSLLYSIGKNYVDWYLQKSGQSPQLLIYEGNNRASGVPDRFSGSGSGTDFTLKISRVEAEDVGFYYCMQSLTSPYTFGQGTKLEIK ?
Result: 0.957 relative to dupilumab

Problem: Query: Relative Inhibition of IL-4 induced pSTAT6 IC50; subject: Construct 32 (mAb446) (antibody, IgG4, V domains shown, VH/VL only) VH: EVQLVESGGGLEQPGGSLRLSCAGSGFTFRDFAMTWVRQAPGKGLEWVSSVSGDGGNTYYADSVKGRFTISRDNSKNTLYLQMNSLRAEDTAVYYCAKDRLSVTVRPRYYGLDVWGQGTTVTVSS VL: DIVMTQSPLSLPVTPGEPASISCRSSQSLLYSNGYNYLDWYLQKSGQSPQLLIYLSSNRASGVPDRFSGSGSGTDFTLKISRVEAEDVGFYYCMQAFQAPYTFGQGTKLEIK
Result: 1.68 relative to dupilumab

Problem: Recorded Relative Inhibition of IL-4 induced pSTAT6 IC50 for Construct 4 (mAb413) (antibody, IgG4, V domains shown, VH/VL only) VH: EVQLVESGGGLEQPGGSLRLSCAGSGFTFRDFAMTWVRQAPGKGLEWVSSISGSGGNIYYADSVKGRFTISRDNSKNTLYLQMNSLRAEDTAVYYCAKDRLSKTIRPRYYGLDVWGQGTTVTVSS VL: DIVMTQSPLSLPVTPGEPASISCTASQSLLYSIGYNYVDWYLQKSGQSPQLLIYLGNNRATGVPDRFSGSGSGTDFTLKISRVEAEDVGFYYCMQALTTPYTFGQGTKLEIK , please?
Result: 0.493 relative to dupilumab

Problem: Quick check: Relative Inhibition of IL-4 induced pSTAT6 IC50 of Construct 24 (mAb432) (antibody, IgG4, V domains shown, VH/VL only) VH: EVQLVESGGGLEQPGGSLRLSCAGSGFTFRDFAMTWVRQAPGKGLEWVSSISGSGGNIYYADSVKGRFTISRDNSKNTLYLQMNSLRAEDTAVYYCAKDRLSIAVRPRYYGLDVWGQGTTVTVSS VL: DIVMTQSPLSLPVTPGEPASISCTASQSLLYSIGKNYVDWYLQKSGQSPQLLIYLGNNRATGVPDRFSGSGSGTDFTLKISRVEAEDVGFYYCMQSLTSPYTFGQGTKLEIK ?
Result: 0.629 relative to dupilumab
